Ref: ChEMBL document CHEMBL1149694

assay: Clearance in rat at 1 mg/kg, iv; format: ADME, organism-based; design: dose 1 mg/kg, route intravenous; settings: in vivo
value type: clearance (mL/min/kg)
Unit mL/min/kg implied. Number only.

INPUT: I would be grateful if you could share the reported clearance for `Cn1c(C#N)ccc1-c1ccc2[nH]c(=S)n(C3CCCC3)c2c1` .
OUTPUT: 25

====

assay: Bioavailability in rat at 1 mg/kg, po; format: ADME, organism-based; settings: in vivo
value type: bioavailability (%)
Unit % implied. Number only.

INPUT: Which bioavailability value is on record for `Cn1c(C#N)ccc1-c1ccc2[nH]c(=S)n(C3CCCC3)c2c1` ?
OUTPUT: 71

====

target: Progesterone receptor (Homo sapiens, UniProt P06401); assay: Agonist activity at progesterone receptor expressed in T47D cells by alkaline phosphatase assay; type: functional, cell-based
value type: EC50

INPUT: Given the entry `CCC(CC)n1c(=S)[nH]c2ccc(-c3cc(F)cc(C#N)c3)cc21` , report its measured EC50.
OUTPUT: 270 nM

INPUT: Which EC50 is reported for this compound? `Fc1ccc(-c2ccc3[nH]c(=S)n(C4CCCC4)c3c2)cc1F`
OUTPUT: 62.5 nM

INPUT: # EC50 lookup, item `Cn1c(C#N)ccc1-c1ccc2[nH]c(=O)n(C3CCCC3)c2c1`
OUTPUT: > 3000 nM

INPUT: Report EC50 for `Fc1ccc(-c2ccc3[nH]c(=S)n(C4CCCC4)c3c2)cc1Cl` please.
OUTPUT: 49.3 nM

INPUT: Please look up its EC50: `Cn1c(C#N)ccc1-c1ccc2[nH]c(=S)n(C3CCC3)c2c1`
OUTPUT: 0.5 nM

INPUT: For the compound `Cn1c(C#N)ccc1-c1ccc2[nH]c(=O)n(C3CCC3)c2c1` , what EC50 is on record?
OUTPUT: > 3000 nM

INPUT: Look at this compound and give its reported EC50. `CCC(CC)n1c(=O)[nH]c2ccc(-c3ccc(C#N)n3C)cc21`
OUTPUT: > 3000 nM

INPUT: Looking for the measured EC50 of `Cn1c(C#N)ccc1-c1ccc2[nH]c(=S)n(C3CCCC3)c2c1` , can you help?
OUTPUT: 0.1 nM

INPUT: Looking for the measured EC50 of `CCC(CC)n1c(=S)[nH]c2ccc(-c3ccc(C#N)n3C)cc21` , can you help?
OUTPUT: 1 nM

INPUT: Recorded EC50 for `N#Cc1cc(F)cc(-c2ccc3[nH]c(=S)n(C4CCC4)c3c2)c1` , please?
OUTPUT: 2.7 nM

====

assay: AUC (0 to infinity) in rat at 1 mg/kg, iv; assay type: ADME, organism-based; design: time infinity, dose 1 mg/kg, route intravenous; conditions: plasma
value type: AUC(0-inf) (ng·h/mL)
Respond with the bare value in ng·h/mL.

INPUT: # lookup: AUC(0-inf) of `Cn1c(C#N)ccc1-c1ccc2[nH]c(=S)n(C3CCCC3)c2c1`
OUTPUT: 680

====

target: Glucocorticoid receptor (Homo sapiens, UniProt P04150)
Sequence (P04150 whole entry): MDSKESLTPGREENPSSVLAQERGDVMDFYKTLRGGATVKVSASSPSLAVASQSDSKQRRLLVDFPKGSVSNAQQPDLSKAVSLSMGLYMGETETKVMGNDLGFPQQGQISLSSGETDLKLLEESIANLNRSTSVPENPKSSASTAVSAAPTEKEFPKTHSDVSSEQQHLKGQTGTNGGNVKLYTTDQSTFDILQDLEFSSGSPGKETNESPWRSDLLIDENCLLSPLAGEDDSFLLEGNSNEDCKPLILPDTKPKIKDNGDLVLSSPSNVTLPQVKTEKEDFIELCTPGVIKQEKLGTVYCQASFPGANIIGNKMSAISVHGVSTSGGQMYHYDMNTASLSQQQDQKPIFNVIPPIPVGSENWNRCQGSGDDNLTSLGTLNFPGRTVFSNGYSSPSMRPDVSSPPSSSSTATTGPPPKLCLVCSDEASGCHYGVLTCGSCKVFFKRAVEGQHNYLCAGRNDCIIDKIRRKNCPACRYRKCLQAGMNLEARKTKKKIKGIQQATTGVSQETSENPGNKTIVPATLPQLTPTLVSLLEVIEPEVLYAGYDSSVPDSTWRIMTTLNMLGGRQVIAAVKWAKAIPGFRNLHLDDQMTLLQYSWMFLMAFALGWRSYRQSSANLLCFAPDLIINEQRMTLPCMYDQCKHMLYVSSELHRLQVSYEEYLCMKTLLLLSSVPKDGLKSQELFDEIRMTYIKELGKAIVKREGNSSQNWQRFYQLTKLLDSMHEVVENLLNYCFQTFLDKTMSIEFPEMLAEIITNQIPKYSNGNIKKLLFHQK
value type: IC50 (nM)
All answers are understood in nM, so give the number only.

INPUT: Name the recorded IC50 for `Cn1c(C#N)ccc1-c1ccc2[nH]c(=S)n(C3CCCC3)c2c1` .
OUTPUT: 99

====

experiment: AUC (0 to infinity) in rat at 1 mg/kg, po; format: ADME, organism-based; set-up: time infinity, dose 1 mg/kg, route oral; details: plasma
value type: AUC(0-inf) (ng·h/mL)
Please respond with the number in ng·h/mL and leave the unit unwritten.

INPUT: Field request: AUC(0-inf) | item: `Cn1c(C#N)ccc1-c1ccc2[nH]c(=S)n(C3CCCC3)c2c1`
OUTPUT: 480

====

Molecular target: Androgen receptor (Homo sapiens)
Sequence (P10275 whole entry): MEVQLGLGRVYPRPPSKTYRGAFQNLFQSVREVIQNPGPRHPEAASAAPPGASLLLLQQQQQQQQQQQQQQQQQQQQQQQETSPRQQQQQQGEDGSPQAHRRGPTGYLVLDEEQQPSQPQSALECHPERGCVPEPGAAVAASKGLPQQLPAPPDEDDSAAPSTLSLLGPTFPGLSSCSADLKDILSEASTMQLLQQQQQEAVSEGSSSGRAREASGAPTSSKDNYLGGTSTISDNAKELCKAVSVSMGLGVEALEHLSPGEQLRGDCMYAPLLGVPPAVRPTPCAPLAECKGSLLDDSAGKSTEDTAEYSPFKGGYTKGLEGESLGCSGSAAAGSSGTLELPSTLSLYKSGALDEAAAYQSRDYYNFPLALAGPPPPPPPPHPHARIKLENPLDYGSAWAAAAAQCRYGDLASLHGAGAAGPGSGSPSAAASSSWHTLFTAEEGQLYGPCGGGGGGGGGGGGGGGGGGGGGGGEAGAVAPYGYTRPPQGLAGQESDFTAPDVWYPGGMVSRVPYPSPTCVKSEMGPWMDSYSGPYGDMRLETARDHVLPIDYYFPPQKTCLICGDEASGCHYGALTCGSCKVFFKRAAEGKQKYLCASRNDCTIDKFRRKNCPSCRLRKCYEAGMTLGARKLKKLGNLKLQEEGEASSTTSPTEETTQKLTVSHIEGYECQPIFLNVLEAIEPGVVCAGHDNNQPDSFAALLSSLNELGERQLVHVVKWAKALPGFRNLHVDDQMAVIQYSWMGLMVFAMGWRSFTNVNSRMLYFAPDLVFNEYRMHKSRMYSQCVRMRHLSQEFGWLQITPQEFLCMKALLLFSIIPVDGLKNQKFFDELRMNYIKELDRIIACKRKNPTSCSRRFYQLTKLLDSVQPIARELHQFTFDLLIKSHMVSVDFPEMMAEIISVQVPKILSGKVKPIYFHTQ
value type: IC50 (µM)
Give the quantity in µM, number only.

INPUT: Form field: reported IC50 of `Cn1c(C#N)ccc1-c1ccc2[nH]c(=S)n(C3CCCC3)c2c1`
OUTPUT: 1

====

Target: Progesterone receptor (Homo sapiens) (UniProt P06401)
Sequence (whole entry): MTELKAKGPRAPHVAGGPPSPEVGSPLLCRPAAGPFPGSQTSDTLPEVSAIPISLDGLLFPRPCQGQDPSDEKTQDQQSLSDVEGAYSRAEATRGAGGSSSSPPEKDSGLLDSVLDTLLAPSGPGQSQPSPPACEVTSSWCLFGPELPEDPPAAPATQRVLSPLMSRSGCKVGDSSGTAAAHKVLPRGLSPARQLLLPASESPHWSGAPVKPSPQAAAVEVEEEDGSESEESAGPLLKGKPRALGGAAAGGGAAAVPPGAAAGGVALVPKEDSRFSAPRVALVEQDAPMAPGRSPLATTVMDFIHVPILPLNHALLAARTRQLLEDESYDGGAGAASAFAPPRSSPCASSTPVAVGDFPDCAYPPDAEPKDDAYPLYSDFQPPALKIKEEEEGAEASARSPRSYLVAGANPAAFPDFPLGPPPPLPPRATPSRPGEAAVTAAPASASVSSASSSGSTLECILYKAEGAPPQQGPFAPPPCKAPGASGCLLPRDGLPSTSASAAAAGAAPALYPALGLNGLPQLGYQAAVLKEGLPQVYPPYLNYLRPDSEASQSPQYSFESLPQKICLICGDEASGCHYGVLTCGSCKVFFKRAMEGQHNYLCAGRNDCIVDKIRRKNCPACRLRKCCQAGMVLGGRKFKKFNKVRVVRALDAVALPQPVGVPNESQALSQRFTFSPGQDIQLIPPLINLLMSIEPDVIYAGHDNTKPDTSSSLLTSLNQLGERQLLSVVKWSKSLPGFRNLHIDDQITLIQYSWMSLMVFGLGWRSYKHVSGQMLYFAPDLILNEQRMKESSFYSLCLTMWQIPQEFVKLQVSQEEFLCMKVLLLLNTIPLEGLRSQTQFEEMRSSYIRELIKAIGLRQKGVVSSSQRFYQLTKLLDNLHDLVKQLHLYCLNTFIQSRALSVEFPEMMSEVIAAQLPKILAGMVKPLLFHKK
Assay: Agonist activity at progesterone receptor expressed in T47D cells relative to progesterone
Type: functional, cell-based
value type: Efficacy
Give the number first and the unit second.

INPUT: Any idea what Efficacy came out for `N#Cc1cc(F)cc(-c2ccc3[nH]c(=S)n(C4CCC4)c3c2)c1` on Progesterone receptor (Homo sapiens) (UniProt P06401)?
OUTPUT: 60%

INPUT: Param readout = Efficacy; param system = Progesterone receptor (Homo sapiens) (UniProt P06401); param query = `Cn1c(C#N)ccc1-c1ccc2[nH]c(=S)n(C3CCCC3)c2c1` ; response: value
OUTPUT: 75%

INPUT: // fetch Progesterone receptor (Homo sapiens) (UniProt P06401) Efficacy for `Fc1ccc(-c2ccc3[nH]c(=S)n(C4CCCC4)c3c2)cc1F`
OUTPUT: 75%

INPUT: Requested read-out Efficacy, target or system Progesterone receptor (Homo sapiens) (UniProt P06401), entry `Fc1ccc(-c2ccc3[nH]c(=S)n(C4CCCC4)c3c2)cc1Cl`
OUTPUT: 55%

INPUT: What is its Efficacy for Progesterone receptor (Homo sapiens) (UniProt P06401)? Entry: `Cn1c(C#N)ccc1-c1ccc2[nH]c(=S)n(C3CCC3)c2c1`
OUTPUT: 70%

INPUT: Efficacy of `CCC(CC)n1c(=S)[nH]c2ccc(-c3ccc(C#N)n3C)cc21` on Progesterone receptor (Homo sapiens) (UniProt P06401)?
OUTPUT: 70%

INPUT: Param readout= Efficacy; system= Progesterone receptor (Homo sapiens) (UniProt P06401); entry= `CCC(CC)n1c(=S)[nH]c2ccc(-c3cc(F)cc(C#N)c3)cc21` ; returns value.
OUTPUT: 70%
